Values compiled from ChEMBL document CHEMBL2163318.

Molecular target: Probable G-protein coupled receptor 142 (Mus musculus, UniProt Q7TQN9)
Sequence (Q7TQN9 whole entry): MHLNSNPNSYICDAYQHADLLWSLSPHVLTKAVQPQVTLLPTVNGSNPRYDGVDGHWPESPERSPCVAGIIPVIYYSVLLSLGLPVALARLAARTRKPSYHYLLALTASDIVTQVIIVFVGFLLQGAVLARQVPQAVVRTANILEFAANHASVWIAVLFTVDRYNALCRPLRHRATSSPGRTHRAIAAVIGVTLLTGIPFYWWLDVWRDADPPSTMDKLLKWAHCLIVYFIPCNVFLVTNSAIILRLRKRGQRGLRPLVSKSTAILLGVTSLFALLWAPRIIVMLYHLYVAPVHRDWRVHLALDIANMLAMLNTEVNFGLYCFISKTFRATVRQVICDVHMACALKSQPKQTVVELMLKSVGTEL
Experiment: Agonist activity at mouse GPR142 expressed in HEK293 cells by inositol phosphate accumulation assay
Quantity Name: EC50 (nM)

| Structure Smiles String | Unit Text | Val |
| --- | --- | --- |
| O=C(Nc1cc(-c2ccncc2)c[nH]c1=O)[C@H](Cc1ccccc1)NC1(c2ccccn2)CC1 | nM | 1.8 |

----------
Target: UniProtKB Q7Z601
Test: Agonist activity at human GPR142 expressed in HEK293 cells assessed as inositol phosphate accumulation after 1 hr by scintillation counting in presence of 100% serum
Assay type: functional, cell-based
The source made the active and inactive calls. The calls are words filed in the database; no cut-off is given here.
Quantity Name: Activity

| Structure Smiles String | Val |
| --- | --- |
| COc1ncc(-c2ccncc2)cc1NC(=O)[C@H](Cc1ccccc1)NC1(c2ccccn2)CC1 | inactive |
| O=C(Nc1nnc(-c2ccncc2)s1)[C@H](Cc1ccccc1)NCc1cscn1 | Active |
| CNc1cc(-c2nnc(NC(=O)[C@H](Cc3ccccc3)NCc3cscn3)s2)ccn1 | inactive |
| O=C(Nc1cc(-c2ccncc2)c[nH]c1=O)[C@H](Cc1ccccc1)NCc1cscn1 | Active |

----------
Experiment: Volume of distribution at steady state in rat at 0.5 mg/kg, iv
Format: ADME, organism-based
Parameters: dose 0.5 mg/kg, route intravenous
Settings: in vivo, read-out: Vdss
Quantity Name: Vd (L/kg)

| Structure Smiles String | Quantity Name | Val |
| --- | --- | --- |
| O=C(Nc1nnc(-c2ccncc2)s1)[C@H](Cc1ccccc1)NCc1cscn1 | Vd | 0.21 |

----------
Assay: Half life in rat at 0.5 mg/kg, iv
Assay type: ADME, organism-based
Parameters: dose 0.5 mg/kg, route intravenous
Conditions: in vivo
Quantity Name: half-life (h)

| Structure Smiles String | Quantity Name | Val |
| --- | --- | --- |
| O=C(Nc1nnc(-c2ccncc2)s1)[C@H](Cc1ccccc1)NCc1cscn1 | half-life | 1.2 |

----------
# metabolised at 0.5 h, 1 µM annotations
Assay: Metabolic stability of human microsomes assessed as compound turnover at 1 uM after 30 mins by LC-MS analysis
Type: ADME, Microsome
Settings: read-out: Drug metabolism

| Structure Smiles String | Reading Qualifier | metabolised at 0.5 h, 1 µM / % |
| --- | --- | --- |
| C[C@@H](N[C@@H](Cc1ccccc1)C(=O)Nc1cc(-c2ccncc2)c[nH]c1=O)c1ccccn1 | = | 95 |
| O=C(Nc1nnc(-c2cncs2)s1)[C@H](Cc1ccccc1)NCc1cscn1 | = | 29 |
| CN(C)CCn1cc(-c2ccncc2)cc(NC(=O)[C@H](Cc2ccccc2)NC2(c3ccccn3)CC2)c1=O | = | 19 |
| O=C1CC[C@H](CN[C@@H](Cc2ccccc2)C(=O)Nc2cc(-c3ccncc3)c[nH]c2=O)N1 | = | 19 |
| O=C(Nc1cc(-c2ccncc2)c[nH]c1=O)[C@H](Cc1ccccc1)NCC1CCS(=O)(=O)CC1 | = | 21 |
| O=C(Nc1cc(-c2ccncc2)c[nH]c1=O)[C@H](Cc1ccccc1)NCc1c[nH]cn1 | = | 60 |
| Cn1cncc1-c1nnc(NC(=O)[C@H](Cc2ccccc2)NCc2cscn2)s1 | = | 19 |
| CNc1cc(-c2nnc(NC(=O)[C@H](Cc3ccccc3)NCc3cscn3)s2)ccn1 | = | 58 |
| O=C(Nc1cc(-c2ccncc2)c[nH]c1=O)[C@H](Cc1ccccc1)NC1(c2ccccn2)CC1 | < | 10 |

----------
Test: Clearance in rat at 0.89 mg/kg, iv
Format: ADME, organism-based
Parameters: dose 0.89 mg/kg, route intravenous
Details: in vivo

| Structure Smiles String | clearance, mL/min/kg |
| --- | --- |
| O=C(Nc1cc(-c2ccncc2)c[nH]c1=O)[C@H](Cc1ccccc1)NC1(c2ccccn2)CC1 | 83.3 |

----------
# metabolised at 0.5 h, 1 µM annotations
Experiment: Metabolic stability of human microsomes assessed as compound turnover at 1 uM after 30 mins by LC-MS analysis
Type: ADME, Microsome
Conditions: read-out: Drug metabolism
Quantity Name: metabolised at 0.5 h, 1 µM (%)

| Compound | Quantity Name | Reading Qualifier | Val |
| --- | --- | --- | --- |
| O=C(Nc1cc(-c2ccncc2)c[nH]c1=O)[C@H](Cc1ccccc1)NC1(c2ncccn2)CC1 | metabolised at 0.5 h, 1 µM | = | 21 |
| Cc1nc(C2(N[C@@H](Cc3ccccc3)C(=O)Nc3cc(-c4ccncc4)c[nH]c3=O)CC2)cs1 | metabolised at 0.5 h, 1 µM | = | 64 |
| O=C(Nc1cc(-c2ccncc2)c[nH]c1=O)[C@H](Cc1ccccc1)NCCc1ccccn1 | metabolised at 0.5 h, 1 µM | = | 100 |
| O=C(O)Cn1cc(-c2ccncc2)cc(NC(=O)[C@H](Cc2ccccc2)NC2(c3ccccn3)CC2)c1=O | metabolised at 0.5 h, 1 µM | = | 10 |
| CCC(N[C@@H](Cc1ccccc1)C(=O)Nc1cc(-c2ccncc2)c[nH]c1=O)c1ccccn1 (mixture of isomers) | metabolised at 0.5 h, 1 µM | = | 85 |
| O=C(Nc1cc(-c2ccncc2)c[nH]c1=O)[C@H](Cc1ccccc1)NCCC1CCOCC1 | metabolised at 0.5 h, 1 µM | = | 66 |
| CC(C)(N[C@@H](Cc1ccccc1)C(=O)Nc1cc(-c2ccncc2)c[nH]c1=O)c1ccccn1 | metabolised at 0.5 h, 1 µM | > | 95 |

----------
Assay: Metabolic stability of rat microsomes assessed as compound turnover at 1 uM after 30 mins by LC-MS analysis
Format: ADME, Microsome
Conditions: read-out: Drug metabolism

| Structure Smiles String | Unit Text | metabolised at 0.5 h, 1 µM |
| --- | --- | --- |
| O=C(Nc1cc(-c2ccncc2)c[nH]c1=O)[C@H](Cc1ccccc1)NCc1cscn1 | % | 99 |
| O=C(Nc1nnc(-c2cncs2)s1)[C@H](Cc1ccccc1)NCc1cscn1 | % | 57 |
| CNc1cc(-c2nnc(NC(=O)[C@H](Cc3ccccc3)NCc3cscn3)s2)ccn1 | % | 66 |
| COc1ncc(-c2ccncc2)cc1NC(=O)[C@H](Cc1ccccc1)NC1(c2ccccn2)CC1 | % | 54 |
| C[C@H](N[C@@H](Cc1ccccc1)C(=O)Nc1cc(-c2ccncc2)c[nH]c1=O)c1ccccn1 | % | 99 |

----------
Test system: Mus musculus
Experiment: Antidiabetic activity in sc dosed B6D2F1 Harlan mouse assessed as decrease in blood glucose level administered 15 mins prior glucose challenge measured 7.5 mins post glucose challenge by glucometer analysis
Type: functional, organism-based
Quantity Name: EC50

| Structure Smiles String | Target Entity | Val |
| --- | --- | --- |
| O=C(Nc1cc(-c2ccncc2)c[nH]c1=O)[C@H](Cc1ccccc1)NC1(c2ccccn2)CC1 | Mus musculus | 0.85 µM |

----------
Biological target: Probable G-protein coupled receptor 142 (Homo sapiens) (UniProt Q7Z601)
Sequence (Q7Z601 whole entry): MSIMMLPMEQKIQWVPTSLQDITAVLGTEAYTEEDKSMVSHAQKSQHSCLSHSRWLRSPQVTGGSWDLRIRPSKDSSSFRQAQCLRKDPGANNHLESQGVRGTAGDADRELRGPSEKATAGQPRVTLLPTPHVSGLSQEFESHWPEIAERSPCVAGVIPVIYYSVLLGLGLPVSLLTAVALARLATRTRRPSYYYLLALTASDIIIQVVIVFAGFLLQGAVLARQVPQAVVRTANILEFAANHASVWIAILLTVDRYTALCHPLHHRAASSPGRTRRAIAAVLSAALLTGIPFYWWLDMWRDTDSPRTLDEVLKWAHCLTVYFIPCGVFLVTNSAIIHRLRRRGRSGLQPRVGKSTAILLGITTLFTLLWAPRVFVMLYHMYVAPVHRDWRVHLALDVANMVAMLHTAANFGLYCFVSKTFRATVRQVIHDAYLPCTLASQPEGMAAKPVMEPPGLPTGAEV
Assay: Agonist activity at human GPR142 expressed in HEK293 cells assessed as inositol phosphate accumulation at 10 uM after 1 hr by scintillation counting
Format: functional, cell-based
# Emax annotations

| Structure Smiles String | Target Entity | Emax |
| --- | --- | --- |
| O=C(Nc1cc(-c2ccncc2)c[nH]c1=O)[C@H](Cc1ccccc1)NC[C@H]1CCCO1 | Probable G-protein coupled receptor 142 (Homo sapiens) (UniProt Q7Z601) | 78% |
| Cc1nc(C2(N[C@@H](Cc3ccccc3)C(=O)Nc3cc(-c4ccncc4)c[nH]c3=O)CC2)cs1 | Probable G-protein coupled receptor 142 (Homo sapiens) (UniProt Q7Z601) | 106% |
| O=C(Nc1cc(-c2ccncc2)c[nH]c1=O)[C@H](Cc1ccccc1)NCc1c[nH]cn1 | Probable G-protein coupled receptor 142 (Homo sapiens) (UniProt Q7Z601) | 107% |
| C[C@H](N[C@@H](Cc1ccccc1)C(=O)Nc1cc(-c2ccncc2)c[nH]c1=O)c1ccccn1 | Probable G-protein coupled receptor 142 (Homo sapiens) (UniProt Q7Z601) | 107% |
| CNc1cc(-c2nnc(NC(=O)[C@H](Cc3ccccc3)NCc3cscn3)s2)ccn1 | Probable G-protein coupled receptor 142 (Homo sapiens) (UniProt Q7Z601) | 96% |
| O=C(O)Cn1cc(-c2ccncc2)cc(NC(=O)[C@H](Cc2ccccc2)NC2(c3ccccn3)CC2)c1=O | Probable G-protein coupled receptor 142 (Homo sapiens) (UniProt Q7Z601) | 83% |

----------
Test: Oral bioavailability in rat at 2 mg/kg
Assay type: ADME, organism-based
Conditions: in vivo
Label criterion met when bioavailability >= 30%; otherwise criterion not met.

| Structure Smiles String | Class Label |
| --- | --- |
| O=C(Nc1cc(-c2ccncc2)c[nH]c1=O)[C@H](Cc1ccccc1)NC1(c2ccccn2)CC1 | criterion not met |
| Cn1cncc1-c1nnc(NC(=O)[C@H](Cc2ccccc2)NCc2cscn2)s1 | criterion not met |
| CNc1cc(-c2nnc(NC(=O)[C@H](Cc3ccccc3)NCc3cscn3)s2)ccn1 | criterion met |
| O=C(Nc1nnc(-c2ccncc2)s1)[C@H](Cc1ccccc1)NCc1cscn1 | criterion not met |
| O=C(Nc1nnc(-c2cncs2)s1)[C@H](Cc1ccccc1)NCc1cscn1 | criterion met |
